Reported IC50 (read off the curve) values are given for each entry in this list.
- assay_system: T1, canine CTLA-4 (cCTLA-4) recombinant protein (canine, UniProt Q9XSI1 38-161, limits assumed)
- T1 construct: also called canine Cytotoxic T-Lymphocyte-Associated protein 4; CD152
- T1 chain: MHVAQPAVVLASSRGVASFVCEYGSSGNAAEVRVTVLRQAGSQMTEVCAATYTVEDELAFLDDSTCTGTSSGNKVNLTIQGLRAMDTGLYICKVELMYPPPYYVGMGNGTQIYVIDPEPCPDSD
- test_protocol: blocking ELISA: cCTLA-4 coated at 200 ng/well, antibody dilutions mixed with 100 ng/well biotinylated canine CD80 (the blocked ligand), streptavidin-HRP, OD450/540 (Example 4)

{"columns": ["binder", "measured_metric", "meas_value"],
 "data": [
  ["Mouse-canine chimeric antibody 12B3 (antibody, V domains shown, expressed in HEK 293 cells, purified on protein A; also called chimera of 12B3) VH: QIQLVQSGPELKKPGETVKISCKASGYTFTNYGMNWVKQAPGKGLKWMGWINTYTGEPTYADDFKGRFAFSLETSASTAYLQINNLKNEDMATYFCARRSIYYPYWGQGTTLTVSS VL: DVLMTQTPLSLPVSLGDQASISCRSSQSIVYSNGNTYLEWYLQKPGQSPKLLIYKVSNRFSGVPDRFSGSGSGTDFTLKISRVEAEDLGVYYCFQGSHVPWTFGGGTKLEIKR", "IC50 (read off the curve)", "~0.1 µg/mL"]
]}

Look up and state reported IC50 (read off the curve) for Mouse-canine chimeric antibody 27G12 (antibody, V domains shown, Mouse variable regions fused to canine constant heavy chain and canine kappa; HEK 293, protein A) VH: QIQLVQSGPELKKPGETVKISCKASGYTFTTYGVSWVKQAPGKGLRWMGWINTYSGMPTYVDDFKGRFAFSLETSASTAFLQINNLKNEDTAIYFCARRGISFDYWGQGTTLTVSS VL: DVLMTQTPLSLPVSLGDHASISCKSSQSIVYINGNTYLEWYLQKPGQSPKLLIYKVSKRFSGVPDRFSGSGSGTDFTLKISRVEAEDLGVYYCFQGSHVPWTFGGGTKLEIKR
~0.2 µg/mL
